# SYSTEM_TESTED: LK35.2-hPD-L1 cells / PE-labeled PD-1-Ig (Homo sapiens)
# Construct: expressed in transfected cells; host or cells: LK35.2 mouse B cell line
# Sequence (Q9NZQ7 19-290): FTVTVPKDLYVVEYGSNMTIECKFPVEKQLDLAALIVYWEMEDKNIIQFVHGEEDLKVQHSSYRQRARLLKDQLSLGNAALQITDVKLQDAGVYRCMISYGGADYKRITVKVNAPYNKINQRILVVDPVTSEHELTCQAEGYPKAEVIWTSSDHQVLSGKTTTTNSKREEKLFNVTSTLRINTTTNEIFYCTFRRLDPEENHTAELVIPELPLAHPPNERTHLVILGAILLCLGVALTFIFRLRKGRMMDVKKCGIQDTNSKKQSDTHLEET
# ASSAY_OVERVIEW: LK35.2-hPD-L1 cell binding high-content screening assay
# Format: cell-based
# MEASUREMENT_CONDITIONS: cell binding assay, cell line not given; cluster symbol; read-out: CBA IC50 cluster
Positions of bridges follow the written chain, without caps; N, C: chain ends. Non-standard residues stand in square brackets, D forms with d. Residues, ends and D or L forms follow the SMILES beside them. ξ: configuration not given here. Hyp = O=C(O)[C@@H]1C[C@@H](O)CN1; NMehSer = CN[C@@H](CCO)C(=O)O; NMeNle = CCCC[C@H](NC)C(=O)O; NMeA = CN[C@@H](C)C(=O)O; Dab = NCC[C@H](N)C(=O)O; ξC = NC(CS)C(=O)O; Sar = CNCC(=O)O
READOUT_LABEL: IC50

Example results:
COMPOUND	IC50
CCCC[C@H]1C(=O)N(C)[C@@H](CCCC)C(=O)N[C@@H](CO)C(=O)N[C@H](C(=O)NCC(N)=O)CSCC(=O)N[C@@H](Cc2ccc(O)cc2)C(=O)N(C)[C@@H](C)C(=O)N[C@@H](CCN)C(=O)N2CCC[C@H]2C(=O)N[C@@H](CO)C(=O)N[C@@H](CCC(=O)O)C(=O)N2C[C@H](O)C[C@H]2C(=O)N[C@@H](Cc2c[nH]c3ccccc23)C(=O)N[C@@H](CO)C(=O)N[C@@H](Cc2c[nH]c3ccccc23)C(=O)N1C [Example 5119] ({CH2CO}-Y[NMeA][Dab]PSE[Hyp]WSW[NMeNle][NMeNle]SCG-NH2; thioether N-14)	4.78 to 72.9 nM
CCCC[C@H]1C(=O)N(C)[C@@H](CCCC)C(=O)N[C@@H](CCCNC(=N)N)C(=O)N[C@H](C(=O)NCC(N)=O)CSCC(=O)N[C@@H](Cc2ccccc2)C(=O)N(C)[C@@H](C)C(=O)N[C@@H]([C@@H](C)O)C(=O)N2CCC[C@H]2C(=O)N[C@@H](Cc2cnc[nH]2)C(=O)N[C@@H](CC(C)C)C(=O)N(C)CC(=O)N[C@@H](Cc2c[nH]c3ccccc23)C(=O)N[C@@H](CO)C(=O)N[C@@H](Cc2c[nH]c3ccccc23)C(=O)N1C [Example 5020] ({CH2CO}-F[NMeA]TPHL[Sar]WSW[NMeNle][NMeNle]RCG-NH2; thioether N-14)	> 74.3 nM
CCCC[C@H]1C(=O)N[C@@H](CCCNC(=N)N)C(=O)NC(C(=O)NCC(N)=O)CSCC(=O)N[C@@H](Cc2ccc(O)cc2)C(=O)N(C)[C@@H](C)C(=O)N[C@@H](CC(N)=O)C(=O)N2CCC[C@H]2C(=O)N[C@@H](Cc2cnc[nH]2)C(=O)N[C@@H](CC(C)C)C(=O)N2C[C@H](O)C[C@H]2C(=O)N[C@@H](Cc2c[nH]c3ccccc23)C(=O)N[C@@H](CO)C(=O)N[C@@H](Cc2c[nH]c3ccccc23)C(=O)N(C)[C@@H](CCOC)C(=O)N1C (stereo partly shown)	4.78 to 72.9 nM

Kindly consider the entry below.
Form field IC50, entry CCCC[C@H]1C(=O)N[C@@H](CCCNC(=N)N)C(=O)NC(C(=O)NCC(N)=O)CSCC(=O)N[C@@H](Cc2ccc(O)cc2)C(=O)N(C)[C@@H](C)C(=O)N[C@@H](CC(=O)O)C(=O)N2CCC[C@H]2C(=O)N[C@@H](Cc2cnc[nH]2)C(=O)N[C@@H](CC(C)C)C(=O)N2CCC[C@H]2C(=O)N[C@@H](Cc2c[nH]c3ccccc23)C(=O)N[C@@H](CO)C(=O)N[C@@H](Cc2c[nH]c3ccccc23)C(=O)N(C)[C@@H](CCOC)C(=O)N1C (stereo partly shown) [Example 9010] ({CH2CO}-Y[NMeA]DPHLPWSW[NMehSer](Me)[NMeNle]R[ξC]G-NH2; thioether N-14) : 4.78 to 72.9 nM

Data origin: patent US9850283B2
